System: DLD-1 colon
Assay: NCI tumour cell line growth inhibition, 48 h
quantity kind: TGI

Field: example entries. Status: answers known.
1. O=C1C=C(Nc2ccccc2C(=O)CC(=O)C(=O)Nc2ccc(Cl)cc2)c2ccccc2C1=O
35.7 µM
2. CN(C)CCNC(=O)c1cccc2ccc(-c3ccc(Br)cc3)nc12
10.8 µM
3. OCC1OC2c3ccccc3COC2C1OCc1ccccc1 (configuration not stated)
> 100 µM
4. Cc1cc(=O)oc2cc(OCCCOc3ccc4c(C)cc(=O)oc4c3)ccc12
> 100 µM
5. N/C=N/S(=O)(=O)c1ccc(NC(=O)COC(=O)c2cccc3c(=O)c4ccccc4[nH]c23)cc1
> 100 µM

Batch request: TGI for each of the following molecules.
1. Cc1[nH]c(=O)nc(N/N=C/c2ccc(O)cc2)c1C(=O)Nc1ccc(O)cc1
2. CCc1ccccc1NC(=O)C(=O)C(C#N)c1ccccc1Cl (configuration not stated)
3. CC(C)OP(=S)(NC(=S)c1ccccc1)OC(C)C
4. CCOC(=O)c1nc2ccc(OC)cc2c2c1Cc1ccccc1-2
5. N#CC1C[C@@H]2CC3(CCC2CN1C(=O)c1ccccc1)OCCO3 (some centres not stated)
6. COc1cccc(C=O)c1C(=O)c1cc(O)ccc1O

1: > 100 µM; 2: > 100 µM; 3: > 100 µM; 4: > 100 µM; 5: > 100 µM; 6: 30.3 µM

Entry COc1cc2c(cc1OC)C(C#N)N(C(=O)c1ccccc1)C=C2OC(=O)c1ccccc1 (configuration not stated) has what TGI? > 100 µM

----------
System: HT29 colon
Test: NCI tumour cell line growth inhibition, 48 h
Hi, to clarify the labels: condition met covers TGI from 40 µM upward, condition not met covers anything below 40 µM.

Some solved cases for reference:
1) COc1cc(OC)cc(Oc2cnc3cc(N)cc(N)c3n2)c1
condition not met
2) COC(=O)Nc1nc2ccc(S(=O)(=O)Nc3ccccn3)cc2[nH]1
condition met
3) CN(C)CN1CSC(=S)N(CN(C)C)C1
condition met

Does TGI meet or surpass 40 µM for `O=C(Cc1nc2ccc(C(=O)c3ccccc3)cc2[nH]c1=O)C(=O)Nc1nc2ccccc2[nH]1` ? condition met

What do we get for CC(=O)C(=O)NC1/C=C(C)\C=C/C(O)C/C=C(C)\C=C/C(O)CC2OC(=O)C1(C)C(=O)C2C (stereo not given) ? condition met

What do we get for `COC(=O)[C@H]1COC(=S)N1C(=O)[C@@H](C)[C@H](O)C(C)C` ? condition met

What do we get for CC#C[C@]1(O)CCC2[C@@H]3CCC4=CC(=O)CCC4=C3[C@@H](c3ccc(N(C)C)cc3)C[C@@]21C (stereo not given in full) ? condition not met

What do we get for NC1N=Nc2ccccc21 (stereo not given) ? condition met

What do we get for CC[C@@]1(O)C[C@H](OC2CC(N(C)C)C(O)C(C)O2)c2c(cc3c(c2O)C(=O)c2c(O)ccc(O)c2C3=O)[C@H]1C(=O)OC (stereo not given in full) ? condition not met

What do we get for CC(C)(C)COC(=O)C(C)(C)NC(=O)C(CC(=O)OCc1ccccc1)NC(=O)OCc1ccccc1 (stereo not given) ? condition met

What do we get for Cc1ncc([N+](=O)[O-])n1CC[N+](C)([O-])CCCCn1ccnc1[N+](=O)[O-] (stereo not given) ? condition met

----------
Test system: M19-MEL melanoma
Test: NCI tumour cell line growth inhibition, 48 h
Give TGI for every item shown.

Field: example entries. Status: answers known.
1) O=[N+]([O-])c1cc(-c2nc(=S)[nH][nH]2)ccc1O
> 100 µM
2) CCC12CCCN(Cc3ccccc3)C1c1c(n(C)c3ccccc13)C(CO)C2 (configuration not stated)
125 µM
3) COc1cccc2c1OC1Sc3ccccc3-c3nn(-c4ccccc4)c-2c31 (configuration not stated)
> 100 µM
4) NC1N=Nc2ccccc21 (configuration not stated)
> 100 µM
5) CN(C)CCNC(=O)c1cccc2ccc(-c3ccc(Br)cc3)nc12
6.15 µM
6) C/C(CCn1[nH]c(=O)ccc1=O)=N\NC(=O)C(N)=O
> 100 µM
7) CCCCCCSc1nc(N)nc2nc[nH]c12
> 100 µM
8) O=C(COc1ccccc1Cl)N1N=C(c2ccccc2)CC1(O)c1ccccc1 (configuration not stated)
41.6 µM

Batch request: TGI for each of the following compounds.
1. O=C(Cc1nc2ccc(C(=O)c3ccccc3)cc2[nH]c1=O)C(=O)Nc1nc2ccccc2[nH]1
2. Nc1nc(NCCOCP(=O)(O)O)c([N+](=O)[O-])c(=O)[nH]1
3. N#CCCN(CCC#N)c1ccc(/C=C(/NC(=O)c2cc([N+](=O)[O-])ccc2Cl)C(=O)NN)cc1
4. COC(=O)[C@H](CC(C)C)NC(=O)[C@H](Cc1ccccc1)N1CC2C=CC1C2 (some centres not stated)

1: > 100 µM; 2: > 100 µM; 3: > 100 µM; 4: > 100 µM

----------
Tested on: CCRF-CEM leukemia
Assay: NCI tumour cell line growth inhibition, 48 h; in the data active = GI50 below about 0.43 µM; inactive = the rest
One label from this list, please: YES (active), NO (inactive)

Some solved cases for reference:
1) CN1CCN(C(=O)[C@@]2(C)CC[C@]3(C)CC[C@]4(C)C(=CC[C@@H]5[C@@]6(C)CCC(=O)NC(C)(C)[C@@H]6CC[C@]54C)[C@@H]3C2)CC1
NO
2) CNC(=O)c1nn(C)c2c1C(C)(C)Cc1cnc(Nc3cccc(N4CCN(C)CC4)c3)nc1-2
YES
3) O=C1C(=c2ccc(=C3C(=O)c4ccc([N+](=O)[O-])cc4[N+]3=O)cc2)N([O-])c2cc([N+](=O)[O-])ccc21
NO
4) CCN1CCC(CC(=O)Nc2n[nH]c3nnc(-c4cccc(F)c4F)cc23)CC1
NO
5) CCCCCCCCCCCCCC[n+]1ccccc1
YES

Now consider the entry below.
Hi team, can someone confirm the assay call for `COC(=O)c1ccc2nc(-c3cc4ccccc4n3C)n(CCCCOc3cc4c(cc3OC)C(=O)N3CCC[C@H]3C=N4)c2c1` ? NO

----------
Give TGI for every item shown.
System: NCI-H226 lung
Test: NCI tumour cell line growth inhibition, 48 h

Field: example entries. Status: answers known.
1. Cc1cc(=O)oc2cc(OCCCOc3ccc4c(C)cc(=O)oc4c3)ccc12
> 100 µM
2. NC1N=Nc2ccccc21 (configuration not stated)
> 100 µM
3. O=Cc1cccc2ccc3ccccc3c12
74.8 µM
4. CC1CCC2C(C)C(=O)OC3OC4(C)CCC1C32OO4 (configuration not stated)
> 100 µM
5. O=c1c2c3c(sc2nc2n1N=CN(c1ccccc1)C2)CCCC3
> 100 µM

Batch request: TGI for each of the following compounds.
1. CSc1ncc2c(n1)-c1ccccc1OC2N1CCOCC1 (configuration not stated)
2. COc1cccc2c1NC(=O)Cc1c-2[nH]c2ccccc12
3. Cc1nn(C(=O)c2ccccc2O)c2c1C(c1ccc(O)cc1O)SC(N)=N2 (configuration not stated)

["> 100 µM", "> 100 µM", "3.82 µM"]

----------
Tested on: ACHN renal
Assay: NCI tumour cell line growth inhibition, 48 h
quantity kind: TGI

1) Oc1cc(N2CC2)c(O)cc1N1CC1
0.59 µM
2) CN1CCN(Cc2ccc(NC(=O)c3cncc(C#Cc4c(N)ncc5ccc(C#N)cc45)c3)cc2C(F)(F)F)CC1
1.39 µM
3) CCOC(=O)/C=C/C(=O)O/C=C/[N+](=O)[O-]
> 100 µM
4) ClCCCSSCCCCl
> 100 µM
5) CC(C)C(Nc1ncnc2nc[nH]c12)C(=O)O (configuration not stated)
> 100 µM
6) CC(c1cc(Cl)ccc1O)c1cc(Cl)ccc1O
14.1 µM

Batch request: TGI for each of the following compounds.
1. CN1CCN(C(=O)CCC(=O)Nc2cc3c(c4ccccc24)-c2ccc4ccccc4c2C3)CC1
2. Cc1cc2nc3c(C#N)c4c(c(Nc5ccc(F)cc5)n3c2cc1C)CCC4
3. O=C(Cc1ccccc1[N+](=O)[O-])C(CO)c1ccccc1[N+](=O)[O-] (configuration not stated)
4. Cn1c(-c2ccc(-c3cc(-c4cccs4)c(-c4cccs4)n3C)cc2)cc(-c2cccs2)c1-c1cccs1
5. Cc1ccccc1NC(=O)Cc1csc(N/N=C2\NC(=O)/C(=C/c3cccc([N+](=O)[O-])c3)S2)n1
6. CNC(=O)c1nn(C)c2c1C(C)(C)Cc1cnc(Nc3cccc(N4CCN(C)CC4)c3)nc1-2

1. 3.78 µM
2. > 100 µM
3. > 100 µM
4. > 100 µM
5. 28.9 µM
6. > 58.2 µM

Batch request: TGI for each of the following compounds.
1. N#CC1C[C@@H]2CC3(CCC2CN1C(=O)c1ccccc1)OCCO3 (some centres not stated)
2. Cc1ccc([P+](Cc2ccccc2)(c2ccccc2)c2ccccc2)cc1
3. CC(C)OP(=S)(NC(=S)c1ccccc1)OC(C)C
4. NC1N=Nc2ccccc21 (configuration not stated)

1. > 100 µM
2. > 100 µM
3. > 100 µM
4. > 100 µM

Batch request: TGI for each of the following compounds.
1. C[C@@]1(CCCCCCCCCCc2ccccc2)C[C@@]2(C)OC(=O)C[C@H]2OO1
2. O=C(c1ccccc1)C(Cl)C(Cl)c1ccccc1 (configuration not stated)
3. COC(=O)[C@H]1COC(=S)N1C(=O)[C@@H](C)[C@H](O)C(C)C
4. COc1ccc(-c2coc3cc(O)ccc3c2=O)cc1
5. CN(C)C1CCN(Cc2ccc(NC(=O)c3cncc(C#Cc4cnc(N)c5ncccc45)c3)cc2C(F)(F)F)CC1

["4.88 µM", "5.23 µM", "> 100 µM", "> 100 µM", "1.51 µM"]

Short answer please: TGI, ACHN renal, entry `COc1ccc2c(c1)[n+]([O-])c(-c1cccc(Cl)c1)c(N)[n+]2[O-]` > 100 µM

Reference source for all entries: PubChem BioAssay (NCI)
